Biological target: Tyrosine-protein kinase Fes/Fps (Homo sapiens)
Details: at 0.1 µM
Description: GSK_PKIS: FES mean inhibition at 0.1 uM [Nanosyn]
Kindly supply the reported inhibition values for the records listed here.
Give bare numbers, in %.

Worked examples follow.
- Compound: "Cn1cc(C=C2C(=O)Nc3cccnc32)c2ccccc21"
  Numeric readout: 1.69
- Compound: "NS(=O)(=O)c1ccc(N/N=C2\\C(=O)Nc3ccc(C(=O)NCCc4c[nH]cn4)cc32)cc1"
  Numeric readout: 5.34
- Compound: "CC1=C(C(=O)Nc2ccc3[nH]ncc3c2)C(c2ccc3ccccc3c2)CC(=O)N1 (configuration not stated)"
  Numeric readout: 1.76
- Compound: "Fc1cccc(COc2ccc(Nc3ncnc4sc(-c5cccs5)cc34)cc2Cl)c1"
  Numeric readout: 0.45
- Compound: "CCCN1CCC(Oc2cc(Nc3nc(Nc4cccc(F)c4C(N)=O)c4cc[nH]c4n3)c(OC)cc2Cl)CC1"
  Numeric readout: 0.64
- Compound: "O=C1NC(=O)C(c2ccccc2Cl)=C1Nc1cccc(O)c1"
  Numeric readout: 1.81
- Compound: "COC(=O)Nc1nc2cc(Oc3ccc(NC(=O)Nc4cccc(C(=O)O)c4)cc3)ccc2[nH]1"
  Numeric readout: -0.49
- Compound: "COc1cc2ncn(-c3cc(O[C@@H](C)c4ccccc4Cl)c(C(N)=O)s3)c2cc1OC"
  Numeric readout: 3.85
- Compound: "CCCN1CCC=C(c2ccc(Nc3nc(Nc4ccccc4C(N)=O)c4cc[nH]c4n3)c(C)c2)C1"
  Numeric readout: 16.5
- Compound: "CC1=C(C(=O)Nc2ccc3[nH]ncc3c2)C(c2ccc(Cl)c(Cl)c2)CC(=O)N1 (configuration not stated)"
  Numeric readout: 1.63

// batch mode: one inhibition value per listed entry
1. CCn1c(-c2nonc2N)nc2cnc(Oc3cccc(NC(=O)c4ccc(OCCN5CCOCC5)cc4)c3)cc21
2. COc1cc(C)c(NC(=O)CN(C)C)cc1Nc1nc(Nc2cccc(F)c2C(N)=O)c2cc[nH]c2n1
3. COc1cc2ncn(-c3cc(OCc4ccccc4C(F)(F)F)c(C(N)=O)s3)c2cc1OC
4. Nc1ncnc2occ(-c3ccc(NC(=O)Nc4cc(C(F)(F)F)cc(C(F)(F)F)c4)cc3)c12
5. Nc1nc(-c2ccc3c(c2)C(=Cc2cc(Br)c(O)c(Br)c2)C(=O)N3)cs1
6. O=C(Nc1n[nH]c2nc(-c3ccco3)c(Br)cc12)C1CC1

## Output
2.8
76.1
2.56
1.31
-2.93
2.91

## Input Look up inhibition of `Cc1cccc(-c2n[nH]cc2-c2ccc3ncccc3n2)n1` and report it.
## Output 0.45

---

I'd appreciate it if you could supply inhibition values for the items below.
Target: Phosphorylase b kinase gamma catalytic chain, liver/testis isoform (Homo sapiens) (UniProt P15735);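 further: reported value is the mean inhibition of PHKG2 from the GSK_PKIS screening set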
Sequence (P15735 whole entry, canonical isoform): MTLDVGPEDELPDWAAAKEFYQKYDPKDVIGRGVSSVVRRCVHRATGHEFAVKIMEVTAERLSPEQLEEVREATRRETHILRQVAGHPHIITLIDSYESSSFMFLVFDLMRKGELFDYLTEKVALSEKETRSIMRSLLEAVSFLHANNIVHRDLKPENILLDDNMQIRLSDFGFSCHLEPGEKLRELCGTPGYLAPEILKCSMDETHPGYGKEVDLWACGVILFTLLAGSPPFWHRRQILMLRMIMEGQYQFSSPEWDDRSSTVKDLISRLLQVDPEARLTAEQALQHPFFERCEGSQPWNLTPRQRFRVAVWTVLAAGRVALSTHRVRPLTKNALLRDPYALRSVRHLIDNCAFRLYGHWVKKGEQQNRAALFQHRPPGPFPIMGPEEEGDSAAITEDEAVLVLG
Conditions: at 1 µM
Give bare numbers, in %.

- Cpd smiles: "Fc1cccc(COc2ccc(Nc3ncnc4sc(-c5cccs5)cc34)cc2Cl)c1"
  Measurement label: "inhibition"
  Numeric readout: -2.01
- Cpd smiles: "O=C(Nc1n[nH]c2nc(-c3ccco3)c(Br)cc12)C1CC1"
  Measurement label: "inhibition"
  Numeric readout: 1.34
- Cpd smiles: "COc1ccc(-c2ccncc2)cc1C(N)=O"
  Measurement label: "inhibition"
  Numeric readout: 5.45

## Input Return inhibition for the following molecule: `Nc1nc(-c2ccccn2)c(-c2ccc3ncccc3n2)s1`
## Output 5.31
